Cited source: PubChem BioAssay AID1159524

Experiment: High Throughput Screening for Foot and Mouth Disease Virus Antivirals
Conditions: FMDV antiviral cell-based qHTS; series mostly up to 57.9 µM
Among all 410,000 compounds or so, about 5,100 (1.2%) were called active. Inconclusive results (about 8%) are left out. Calls follow the shape of the full dose curve; tested in HEK293T cells. For the sample, actives were picked, then their nearest neighbours and some compounds at random.
Your answer must be one of the following: true = active, false = inactive

For orientation, consider the following solved cases.
| Mol | Category |
| --- | --- |
| COc1ccc2[nH]cc(CCNc3ncnc4ccc(-c5ccc(C(=O)N(C)C)cc5)cc34)c2c1 | false |
| COc1ccccc1CNc1nc2ccc(Cl)cc2n2cnnc12 | false |
| COc1ccc(C2=Nn3c(nnc3-c3ccccc3OC)SC2)cc1OC1CCCC1 | true |
| CC(=O)Nc1ccc(C(=O)NNC(=O)CCCCC(=O)NNC(=O)c2ccc(NC(C)=O)cc2)cc1 | false |
| Cc1ccccc1-c1nc(CS(=O)(=O)CC(=O)Nc2cc(Cl)cc(Cl)c2)c(C)o1 | false |

Next:
Could you kindly confirm the outcome this assay logged for CCCC(=O)Nc1ccc(C(=O)NCCCn2ccnc2)cc1 ?
false

---

Assay: High Throughput Screening for Foot and Mouth Disease Virus Antivirals; also: read-out not given here; nearly all actives have a fitted effect of over 45% in size
Conditions: FMDV antiviral cell-based qHTS; series mostly up to 57.9 µM
The whole screen tested about 410,000 compounds, of which about 5,100 (1.2%) were called active. Another 8% or so got no clear call; they are omitted. Calls follow the shape of the full dose curve; tested in HEK293T cells. The sample as a whole holds a higher share of actives than the screen did.
Your answer must be one of the following: True (active), False (inactive)

For orientation, consider the following solved cases.
| Molecule | Category |
| --- | --- |
| CCOC(=O)c1c(C)[nH]c2c1-c1ccccc1C(=O)C2=O | True |
| Cc1cccc(NC(=O)c2nc(S(=O)(=O)Cc3ccccc3)ncc2Cl)c1 | True |
| c1ccc(CCCCN2CCC(c3ccccc3)CC2)cc1 | False |
| Cc1cccc(Nc2cc(C)nc(-n3nc(C)cc3C)n2)c1 | False |

Could you kindly confirm the outcome this assay logged for O=C(c1cc(C(F)(F)F)cc(C(F)(F)F)c1)N1CCC2(CCCN(c3ccccn3)C2)CC1 ?
False

Could you kindly confirm the outcome this assay logged for Cc1cc(-c2ccnc(-n3ncc(C(=O)NCCc4ccncc4)c3C)n2)c(C)s1 ?
False

Could you kindly confirm the outcome this assay logged for COc1cc(=O)n2c(c1C(=O)NC(C)c1ccco1)CCN(C(=O)c1cn3ccc(C)cc3n1)CC2 (stereo unspecified) ?
False

Could you kindly confirm the outcome this assay logged for CCS(=O)(=O)c1ncc(N(Cc2ccc(F)cc2)Cc2ccco2)c(C(=O)Nc2cc(C)ccc2C)n1 ?
False

Could you kindly confirm the outcome this assay logged for O=C(c1ccncc1)N1CCC2(CCCN(C(c3ccccc3)c3ccccc3)C2)CC1 ?
False

Could you kindly confirm the outcome this assay logged for Cc1ccc(-c2nn(CCC(=O)Nc3ccc(Cl)c(Cl)c3)c(=O)c3ccccc23)cc1 ?
False

Could you kindly confirm the outcome this assay logged for COc1ccc(-c2cn3nc(N4CCCC(C(=O)NCCCOC(C)C)C4)sc3n2)cc1 (stereo unspecified) ?
False

---

Test: High Throughput Screening for Foot and Mouth Disease Virus Antivirals; also: potency is read from the fitted curve at half-maximal effect; also: read-out not given here; nearly all actives have a fitted effect of over 45% in size
Settings: FMDV antiviral cell-based qHTS; series mostly up to 57.9 µM
Out of some 410,000 compounds screened, about 5,100 (1.2%) were called active. Another 8% or so got no clear call; they are omitted. Many of the other results were omitted from the sample, so actives are more common in it than they were.
Recorded metric: Potency

Worked examples follow.
| Compound | Potency |
| --- | --- |
| COc1ccc(C2Oc3c(I)c(OC)cc(OC)c3CC2O)cc1OC (stereo unspecified) | inactive |
| O=C(CSc1ccccc1)Nc1cc(Cl)ccc1Oc1ccccc1 | inactive |
| Cc1ccc2cc(CCNC(=O)c3c(-c4ccccc4Cl)noc3C)c(=O)[nH]c2c1 | inactive |
| Cc1c(C(=O)NCC2CCCN(C)C2)cnn1-c1nccc(-c2ccco2)n1 (stereo unspecified) | inactive |
| Cc1ccc2c(C)nc(N3CCCC(C(=O)NC(C)(C)CO)C3)nc2c1 (stereo unspecified) | inactive |
| COc1ccc(-c2[nH]c3c(c2-c2c(-n4cccc4)n(C)c(=O)n(C)c2=O)c(=O)n(C)c(=O)n3C)cc1 | inactive |
| N[C@H](Cc1o[nH]c(=O)c1Cl)C(=O)O | inactive |
| COc1ccc(CNc2ncnc3ccc(-c4cccnc4)cc23)c(OC)c1 | inactive |
| Cc1onc(-c2c(F)cccc2Cl)c1C(=O)Nc1cccc(S(=O)(=O)N2CCCCC2)c1 | inactive |
| Cn1cnc(C(F)(F)F)c1-c1ccc([N+](=O)[O-])cc1 | inactive |

Hi team, please reply with Potency for each item in this list.
1. Cc1ccc(-n2nc(C)c3c(C)cc(=O)n(CC(=O)Nc4ccc(C(C)C)cc4)c32)cc1
2. Cc1ccc(Cn2cc(CCC(=O)NCc3ccc(OC(C)C)cc3)c3ccccc32)cc1
3. Cc1ccc(CC(=O)Nc2cccc(C#N)c2)cc1
4. O=C(CSc1nc2ccc(Nc3nc(N4CCOCC4)nc(N4CCOCC4)n3)cc2s1)NCc1ccco1
5. O=c1c(NCc2cccs2)nccn1-c1ccccc1
6. Cc1cccc(N2CCN(C(=O)c3cnc(N4CCCC4)nc3C)CC2)c1C

["inactive", "inactive", "inactive", "inactive", "inactive", "inactive"]

Hi team, please reply with Potency for each item in this list.
1. Cc1cc(-c2n[nH]c(=S)n2/N=C/C(Br)=C/c2ccccc2)n[nH]1
2. Cc1ccc(-c2cn3cc(C)ccc3n2)cc1

35.5 µM (active)
8.91 µM (active)

---

Assay: High Throughput Screening for Foot and Mouth Disease Virus Antivirals; also: read-out not given here; nearly all actives have a fitted effect of over 45% in size
Conditions: FMDV antiviral cell-based qHTS; series mostly up to 57.9 µM
In all, about 410,000 compounds went through this assay and about 5,100 (1.2%) were called active. Not shown: some 8% with an inconclusive outcome. The call rests on the fitted dose curve; tested in HEK293T cells. Shown is part of a subset that was picked to be rich in actives.
Your answer must be one of the following: 1 (yes) for active, 0 (no) for inactive

| Compound | Category |
| --- | --- |
| Cn1c(=O)c(CCc2ccccc2)nc2cnc(Nc3ccccc3)nc21 | 0 (no) |
| COc1cc(OC)c2c(c1Cl)OC1(C2=O)C(O)=CC(=O)CC1C (stereo not given) | 0 (no) |
| Cn1c(SCC(=O)N2CCCc3ccccc32)ncc(C(=O)Nc2ccc(F)cc2)c1=O | 0 (no) |
| O=c1n(Cc2cccc(C(F)(F)F)c2)c2ccccc2c2nc(-c3ccccc3)nn12 | 0 (no) |
| COc1cccc(N(CC(=O)NC2CCCC2)C(=O)CCCC(=O)Nc2ccccn2)c1 | 0 (no) |
| CCCc1ccc(-c2c(C)sc(NC(=O)c3ccnn3C)c2C#N)cc1 | 1 (yes) |
| COc1ccc(CN2CCC3(CCC(CNC(=O)c4ccco4)O3)CC2)cc1OC (stereo not given) | 0 (no) |
| OC[C@@H]1CN(Cc2ccc(-c3ccccc3)cc2)C[C@H](n2cnc3c(NC4CCCC4)ncnc32)O1 | 1 (yes) |

Could you kindly confirm the outcome this assay logged for CCOC(=O)c1scc(-c2ccccc2)c1S(=O)(=O)Nc1ccccc1F ?
0 (no)

Could you kindly confirm the outcome this assay logged for OC[C@@H]1CN(C2CCCC2)C[C@H](n2cnc3c(NC4CCC4)ncnc32)O1 ?
0 (no)

Could you kindly confirm the outcome this assay logged for OC[C@@H]1CN(Cc2cccs2)C[C@H](n2cnc3c(Nc4ccccc4)ncnc32)O1 ?
0 (no)

Could you kindly confirm the outcome this assay logged for CCOc1ccc(NC(=O)C2CCCN(C(=O)Nc3ccccc3)C2)cc1 (stereo not given) ?
0 (no)

Could you kindly confirm the outcome this assay logged for COc1ccccc1C(=O)N[C@@H]1c2ccccc2C2(CCN(Cc3nc(C(C)C)cs3)CC2)[C@H]1O ?
1 (yes)

Could you kindly confirm the outcome this assay logged for Nc1nc(/C(=C/CC(=O)O)C(=O)N[C@@H]2C(=O)N3C(C(=O)O)=CCS[C@H]23)cs1 ?
0 (no)

Could you kindly confirm the outcome this assay logged for Cc1ccc2nc(CNC(=O)c3ccccc3)[nH]c2c1 ?
0 (no)

---

Test: High Throughput Screening for Foot and Mouth Disease Virus Antivirals; also: read-out not given here; nearly all actives have a fitted effect of over 45% in size
Conditions: FMDV antiviral cell-based qHTS; series mostly up to 57.9 µM
The whole screen tested about 410,000 compounds, of which about 5,100 (1.2%) were called active. Another 8% or so got no clear call; they are omitted. The call rests on the fitted dose curve; tested in HEK293T cells. For the sample, actives were picked, then their nearest neighbours and some compounds at random.
Your answer must be one of the following: active, inactive

For orientation, consider the following solved cases.
| Compound | Category |
| --- | --- |
| O=C(NCC1Cc2cc(F)cc(-c3cnccn3)c2O1)C1COc2ccccc2O1 (configuration not stated) | inactive |
| CCC(C)NC(=O)Cn1c(=O)n(-c2ccc(Cl)cc2)c(=O)c2c3c(sc21)CCCC3 (configuration not stated) | inactive |
| O=C(Nc1ccc(F)cc1)C1CCCN(S(=O)(=O)c2ccc(-n3cnnn3)cc2)C1 (configuration not stated) | inactive |
| O=C(CCl)N(Cc1cccc([N+](=O)[O-])c1)c1cccc(Cl)c1 | active |
| CC(=O)Nc1ccc(-c2csc(NC(=O)Nc3ccccc3)n2)cc1 | active |

Could you kindly confirm the outcome this assay logged for CCOC(=O)c1cc2c(=O)n3ccccc3nc2n(CC2CCCO2)c1=NC(=O)c1ccccc1F (configuration not stated) ?
inactive

Could you kindly confirm the outcome this assay logged for CC(=O)N(CN1C(=O)C2C3C=CC(C3)C2C1=O)c1cccc(Cl)c1 (configuration not stated) ?
inactive
